# Tested on: BFTC-909 (Kidney Carcinoma)
# protocol details: combination Emax (second highest fraction inhibited in the dose matrix, 72 h); higher = more inhibition; extreme values may be limits of the assay
assay metric: combination Emax

CC1(C)CCC(CN2CCN(c3ccc(C(=O)NS(=O)(=O)c4ccc(NCC5CCOCC5)c([N+](=O)[O-])c4)c(Oc4cnc5[nH]ccc5c4)c3)CC2)=C(c2ccc(Cl)cc2)C1 [Venetoclax] + COc1cc(Nc2ncc3c(n2)-c2ccc(Cl)cc2C(c2c(F)cccc2OC)=NC3)ccc1C(=O)O [Alisertib] (first compound max 1 µM, 7x7, partner max 10 µM)	0.502
CC1(C)CCC(CN2CCN(c3ccc(C(=O)NS(=O)(=O)c4ccc(NCC5CCOCC5)c([N+](=O)[O-])c4)c(Oc4cnc5[nH]ccc5c4)c3)CC2)=C(c2ccc(Cl)cc2)C1 [Venetoclax] + Cn1cnc2c(F)c(Nc3ccc(Br)cc3Cl)c(C(=O)NOCCO)cc21 [Selumetinib] (first compound max 1 µM, 7x7, partner max 3 µM)	0.23

Shift focus to the following entry.
Ask: So what does the record say about combination Emax for COc1nnc2ccc(N3CCC(c4ccc(OCCN5CCN(C)C(=O)[C@H]5C)cc4)CC3)nn12 [AZD5153] + CC1(C)CCC(CN2CCN(c3ccc(C(=O)NS(=O)(=O)c4ccc(NCC5CCOCC5)c([N+](=O)[O-])c4)c(Oc4cnc5[nH]ccc5c4)c3)CC2)=C(c2ccc(Cl)cc2)C1 [Venetoclax] (first compound max 1 µM, 7x7, partner max 1 µM) ?
Result: 0.496

###

# Test system: WSU-NHL (B-Cell Non-Hodgkin's Lymphoma);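 further: after 72 h of two-drug dosing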
# protocol details: Bliss excess, mean over the matrix (fraction); higher = more synergy
Rule: fulfilled for Bliss excess not less than -0.03, not fulfilled for anything less.

# count of solved cases: 3
COc1nnc2ccc(N3CCC(c4ccc(OCCN5CCN(C)C(=O)[C@H]5C)cc4)CC3)nn12 [AZD5153] + C[C@@H]1COCCN1C2=NC(=NC(=C2)C3(CC3)[S@](=N)(=O)C)C4=C5C=CNC5=NC=C4 [AZD6738] (first compound max 1 µM, 7x7, partner max 10 µM)	not fulfilled
Cc1cc2ncnn2cc1Nc1ncc2c(n1)n(C1CCOCC1)c(=O)n2C [AZD7648] + O=C(c1cc(Cc2n[nH]c(=O)c3ccccc23)ccc1F)N1CCN(C(=O)C2CC2)CC1 [Olaparib] (first compound max 10 µM, 7x7, partner max 10 µM)	not fulfilled
Cc1c2c(nn1C)CSCc1cc(n(C)n1)CSc1cc(c3ccccc3c1)OCCCc1c(C(=O)O)n(C)c3c-2c(Cl)ccc13 [AZD5991] + CCN(CCO)CCCOc1ccc2c(Nc3cc(CC(=O)Nc4cccc(F)c4)[nH]n3)ncnc2c1 [AZD2811] (first compound max 1 µM, 7x7, partner max 1 µM)	fulfilled

Ask: # bool: Bliss excess of C[C@@H](Oc1cc(-c2cnn(C3CCNCC3)c2)cnc1N)c1c(Cl)ccc(F)c1Cl [Crizotinib] + CC1=C(C(=CC=C1)Cl)NC(=O)C2=CN=C(S2)NC3=CC(=NC(=N3)C)N4CCN(CC4)CCO [Dasatinib] (first compound max 10 µM, 7x7, partner max 2 µM) >= -0.03
Result: fulfilled

Ask: Proceed to C[C@@H]1COCCN1c1cc(C2([S@](C)(=N)=O)CC2)nc(-c2ccnc3[nH]ccc23)n1 [AZD6738] + Nc1ccn([C@@H]2O[C@H](CO)[C@@H](O)C2(F)F)c(=O)n1 [Gemcitabine] (first compound max 10 µM, 7x7, partner max 0.3 µM)
Result: fulfilled
